Each recorded value in this set is attributed to patent US20250057802A1.

Test system: HEp-2 cells
Experiment: in vitro cytotoxicity analysis (CellTiter-Glo Luminescent Cell Viability Assay)
Assay type: cell-based, human
Parameters: unit not given here
Details: without RSV-infection, 48 h post-treatment
Protocol: FIG. 1A, FIG. 2A, FIG. 3A, FIG. 4A, FIG. 5A, and FIG. 6A show dose-response curves for identified inhibitors against RSV. […] 2 dpi, infection rates were measured by counting infected cells. […] The IC50 was determined by fitting the data to a dose-response curve using nonlinear regression analysis (GraphPad Prism, version 6.02). […] 48 h post-treatment cells were analyzed using CellTiter-Glo® Luminescent Cell Viability Assay (Promega) to determine cell viability rates. […]
Binarize Cytotoxic concentration on HEp-2 cells at 30000; below is t, at or above is f.

Take a look at these entries with their results.
O=C(OCCCOC(=O)c1cc(O)c(O)c(O)c1)c1cc(O)c(O)c(O)c1    f
CC(C)(COC(=O)c1cc(O)c(O)c(O)c1)COC(=O)c1cc(O)c(O)c(O)c1    f
CC(COC(=O)c1ccccc1)(COC(=O)c1ccccc1)COC(=O)c1cc(O)c(O)c(O)c1    t
CC(CNC(=O)c1cccc(O)c1)(CNC(=O)c1cccc(O)c1)CNC(=O)c1cccc(O)c1    f
CC(COC(=O)c1ccccc1)(COC(=O)c1cc(O)c(O)c(O)c1)COC(=O)c1cc(O)c(O)c(O)c1    f

Enquiry: # check: Cytotoxic concentration on HEp-2 cells < 30000 for "O=C(NCCCCCNC(=O)c1cc(O)c(O)c(O)c1)c1cc(O)c(O)c(O)c1"
Return: f

Enquiry: # check: Cytotoxic concentration on HEp-2 cells < 30000 for "O=C(NCCCNC(=O)c1cc(O)c(O)c(O)c1)c1cc(O)c(O)c(O)c1"
Return: t

Enquiry: # check: Cytotoxic concentration on HEp-2 cells < 30000 for O=C(/C=C/c1ccc(O)c(O)c1)O[C@@H]1[C@H](O)C[C@@](O)(C(=O)O)C[C@H]1OC(=O)/C=C/c1ccc(O)c(O)c1 [4,5-DCQA, reference compound]
Return: f

Enquiry: # check: Cytotoxic concentration on HEp-2 cells < 30000 for "O=C(NCCCCCCCCCCNC(=O)c1cc(O)c(O)c(O)c1)c1cc(O)c(O)c(O)c1"
Return: f

Enquiry: # check: Cytotoxic concentration on HEp-2 cells < 30000 for "O=C(OCCCCCCCCOC(=O)c1cc(O)c(O)c(O)c1)c1cc(O)c(O)c(O)c1"
Return: t

Enquiry: # check: Cytotoxic concentration on HEp-2 cells < 30000 for "CC(COC(=O)c1cc(O)c(O)c(O)c1)(COC(=O)c1cc(O)c(O)c(O)c1)COC(=O)c1cc(O)c(O)c(O)c1"
Return: f

Enquiry: # check: Cytotoxic concentration on HEp-2 cells < 30000 for "CC(CNC(=O)c1cc(O)c(O)c(O)c1)(CNC(=O)c1cc(O)c(O)c(O)c1)CNC(=O)c1cc(O)c(O)c(O)c1"
Return: f

Enquiry: # check: Cytotoxic concentration on HEp-2 cells < 30000 for "O=C(OCC(O)COC(=O)c1cc(O)c(O)c(O)c1)c1cc(O)c(O)c(O)c1"
Return: f

Enquiry: # check: Cytotoxic concentration on HEp-2 cells < 30000 for "CC(CNC(=O)c1ccc(O)cc1)(CNC(=O)c1ccc(O)cc1)CNC(=O)c1ccc(O)cc1"
Return: f

Enquiry: # check: Cytotoxic concentration on HEp-2 cells < 30000 for "O=C(O[C@@H]1CCC[C@H](OC(=O)c2cc(O)c(O)c(O)c2)C1)c1cc(O)c(O)c(O)c1"
Return: f
